Consider the following sequences; for each one, report its recombinant UMI read abundance (log10).
# assay_name: recombinant UMI read abundance after kanamycin selection (control-corrected) (log10(CPM+1)); higher = more efficient recombination; extreme values may be limits of the assay; sequences stand for … in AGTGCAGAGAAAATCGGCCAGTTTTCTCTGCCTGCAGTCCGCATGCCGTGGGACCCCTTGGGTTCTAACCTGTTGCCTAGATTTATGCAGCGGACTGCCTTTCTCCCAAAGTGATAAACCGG…AGGTTGGTTTCACT; site = the 11-nt donor;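 further: IS621 bridge recombinase in Escherichia coli cells against a fixed T5 target plasmid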

> print(dat)
                             residue.string  reported.value
1  ACTTATGCATGGACCGGTTTTCCCGGTAATCCGTATTTGGA (site AATTATGCTTC)           0.425
2  TCCGGGCCATGGACCGGTTTTCCCGGTAATCCGTATTTGGG (site TCCGGGCCTCC)          0.0269
3  ACAAACCCATGGACCGGTTTTCCCGGTAATCCGTATTTGGG (site ACAAACCCTCC)               0
4  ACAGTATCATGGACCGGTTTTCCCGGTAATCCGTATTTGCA (site ACAGTAGCTCG)         0.00206
5  GTTACAACATGGACCGGTTTTCCCGGTAATCCGTATTTGGC (site GTTATAACTGC)               0
6  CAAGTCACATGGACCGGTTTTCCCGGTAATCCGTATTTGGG (site CAAGTGACTCC)          0.0398

query: For the sequence shown here, AGGCATACATGGACCGGTTTTCCCGGTAATCCGTATTTGCA (site AGGAAGACTTG) , give the reported recombinant UMI read abundance (log10).
result: 0
